Quick reference: z-score of the listed items.
biological target: NADPH oxidase 2 (Homo sapiens); experiment: NOX2-dependent H2O2 signal modulators, primary screen, NOX inhibitor project, cell-based, HEK293-NOX2, PMA-stimulated, Amplex Red fluorescence (AID 1159); settings: 45 min, higher = more signal, called active from +8 up or from −8 down; further: test concentration not given here
Measurement kind: z-score

# Compound, Measured number
measured = [
    ("COc1ccc([Si](C)(C)[C@H]2[C@H](CC(=O)N3Cc4ccccc4C[C@H]3CO)O[C@@]3(C(=O)N(Cc4cccc(N5C(=O)COc6ccccc65)c4)c4ccccc43)[C@@H]2C)cc1", -1.37),
    ("C=CCN1C(=O)[C@@]2(O[C@@H](CCO)[C@H]([Si](C)(C)c3ccc(OC)cc3)[C@H]2C)c2cc(N3C(=O)c4cccc5cccc3c45)ccc21", -0.167),
    ("C=CC[C@]1(C(=O)N(C)C)N=C(c2ccc(OCCCO)cc2)O[C@H]1c1ccccc1CN=[N+]=[N-]", 1.23),
    ("COCCCNC(=O)[C@@]1(C)c2ccccc2C(=O)N(Cc2cc(F)cc(C(F)(F)F)c2)[C@H]1c1ccc(CO)cc1", 0.184),
    ("CC(=O)NCCCC[C@@H]1NC(=O)[C@@H]2C[C@H](C(=O)O)[C@H](c3cccc(OCCO)c3)N2C1=O", -1.16),
    ("COCCCNC(=O)[C@@]1(Cc2ccccc2CN=[N+]=[N-])COC(c2ccc(OCCCO)cc2)=N1", -2.47),
    ("C=CCOC(=O)[C@H]1[C@@H]2C(=O)O[C@@H](c3ccccc3)[C@@H](c3ccccc3)N2[C@@H](c2ccc(OCCOC(=O)[C@H]3C[C@H]4C(=O)N5CCC[C@H]5C(=O)N4[C@H]3c3cccc(OCCO)c3)cc2)[C@]12C(=O)Nc1ccccc12", 2.26),
    ("CC(C)(C)OC(=O)CC[C@@]12N=C(c3ccc(OCCCO)cc3)O[C@@H]1c1ccccc1CN(Cc1ccccc1)C2=O", 0.622),
    ("CC(C)N1CC=CC23O[C@@H]4/C=C\\CCCOC(=O)C4[C@H]2C(=O)N(CCCO)[C@@H]3C1=O (stereo partly drawn)", 1.58),
    ("C=CCC(OC(C)=O)[C@@H]1[C@@H](N(Cc2cccc3ccccc23)C(=O)Cc2ccc(OC)cc2)c2cc(OCCCO)ccc2N1C(=O)Cc1ccc(OC)cc1 (stereo partly drawn)", 0.459),
    ("CCCCCCC#C[Si](O[C@H](c1ccccc1)c1cn(Cc2ccccc2)nn1)(C(C)C)C(C)C", -0.941),
    ("COC(=O)[C@@]1(CCC(=O)OC(C)(C)C)COC(c2ccc(OCCCO)cc2)=N1", -0.0972),
    ("C=CCN1C(=O)[C@@]2(O[C@@H](CCn3cc(CCO)nn3)[C@H]([Si](C)(C)c3ccc(OC)cc3)[C@H]2C)c2cc(NC(=O)c3ccc(OC)cc3)ccc21", -0.282),
    ("CC(CO)N1C(=O)[C@@H]2C3C(=O)OCCC/C=C\\[C@H]3OC23C=CCN(Cc2ccccc2)C(=O)[C@@H]13 (stereo partly drawn)", 0.456),
    ("C=C(COC)C(=O)CC[C@H](OC(=O)c1cccnc1)c1cccc(OCCO)c1", 0.936),
    ("COCCOC(=O)N1C(=O)[C@@]2(c3cc(C#CCCO)ccc31)[C@H](c1ccccc1OCCO)N1[C@H](c3ccccc3)[C@H](c3ccccc3)OC(=O)[C@H]1[C@@H]2C(=O)NC[C@H](O)c1ccccc1", 1.59),
    ("C=CC[C@@H](OC(=O)Nc1ccc(SC)cc1)c1ccc(OCCO)cc1", -2.02),
    ("COc1c(C)cc(-c2cc3c(c(CCc4ccccc4)n2)[Si](C(C)C)(C(C)C)OC3)cc1C", 0.726),
    ("COC(=O)c1c(CC[C@@H](CO)NC(=O)Nc2ccc(OC)cc2)oc(C(=O)Cc2ccccc2)c1C(=O)OC", 1.31),
    ("C=C(C(=O)CC[C@H](OC(C)=O)c1ccc(CO)o1)C(C)C", -0.0262),
    ("CCOC(=O)C[C@H]1[C@H](OC(=O)c2ccc(C(=O)c3ccccc3)cc2)[C@@H](NC(=O)Cc2ccc(OC)cc2)c2cc(OCCCO)ccc2N1C(=O)Cc1ccc(OC)cc1", 0.676),
    ("COc1ccc([Si](C)(C)[C@H]2[C@H](CCO)O[C@@]3(C(=O)N(Cc4ccc(N5C(=O)c6cccc7cccc5c67)cc4)c4ccccc43)[C@@H]2C)cc1", 0.469),
    ("C=C(C(=O)CC[C@@H](OC(C)=O)c1ccccc1OCCO)C(C)C", 1.24),
    ("COc1ccc(C(=O)Nc2cccc(CN3C(=O)[C@@]4(O[C@@H](CCO)[C@H]([Si](C)(C)c5ccc(OC)cc5)[C@H]4C)c4ccccc43)c2)cc1", -6.67),
    ("O=C1O[C@@H](c2ccccc2)[C@@H](c2ccccc2)N2[C@@H](c3ccc(OCCO)cc3)[C@]3(C(=O)Nc4ccc(C#CC5(O)CCCCCC5)cc43)[C@@H](C(=O)NC[C@H](O)c3ccccc3)[C@H]12", 1.37),
    ("CC(=O)OC(C/C=C\\B1OC(C)(C)C(C)(C)O1)c1ccccc1 (stereo not drawn)", -0.889),
    ("COc1ccc(C#Cc2ccc3c(c2)[C@]2(C(=O)N3)[C@H](c3ccc(O)cc3)N3[C@H](c4ccccc4)[C@H](c4ccccc4)OC(=O)[C@H]3[C@@H]2C(N)=O)cc1", 1.76),
    ("CCCNC(=O)[C@@]1(Sc2ccc(C)cc2)CC(=O)N(Cc2cc(C(F)(F)F)cc(C(F)(F)F)c2)[C@@H]1c1ccc(CO)cc1I", 1.32),
]
